All values here come from patent US12319695B2.

System: Ba/F3 EGFR del19/T790M/C797S cells
Experiment: Ba/F3 EGFR del19/T790M/C797S cell growth inhibition test (CellTiter-Glo, 72 hours);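 further: compounds tested in tenfold steps from 10 µM down to 0.1 nM, with luminescence read on a microplate reader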
Format: cell-based
Conditions: Ba/F3 cell line overexpressing EGFR del19/T790M/C797S, 72 hours, CellTiter-Glo; read-out: Ba/F3 EGFR del19/T790M/C797S cells, GI50
measured-attribute: GI50

smiles-str	GI50
CN1CCC(Nc2ccc(Nc3nc(Nc4ccccc4N(C)S(C)(=O)=O)c4cc[nH]c4n3)cc2F)CC1	0.047 µM
CN1CCN(c2ccc(Nc3nc(Nc4ccccc4N(C)S(C)(=O)=O)c4cc[nH]c4n3)cc2O)CC1	0.453 µM
CN(c1ccccc1Nc1nc(Nc2ccc(N3CCN(C4COC4)CC3)c(F)c2)nc2[nH]ccc12)S(C)(=O)=O	0.112 µM
CCN1CCN(c2ccc(Nc3nc(Nc4ccccc4N(C)S(C)(=O)=O)c4cc[nH]c4n3)cc2F)CC1	0.01 µM

Bench note, Ba/F3 EGFR del19/T790M/C797S cells: entry CN1CCN(c2ccc(Nc3nc(Nc4ccccc4N(C)S(C)(=O)=O)c4cc[nH]c4n3)c(F)c2)CC1 , its GI50 = 0.157 µM

Assay Ba/F3 EGFR del19/T790M/C797S cells, sample CN1CCC2(CCN(c3ccc(Nc4nc(Nc5ccccc5N(C)S(C)(=O)=O)c5cc[nH]c5n4)cc3F)CC2)C1 , GI50 read: 0.031 µM

CN1CCN(c2ccc(Nc3nc(Nc4ccccc4N(C)S(C)(=O)=O)c4cc[nH]c4n3)cn2)CC1 on Ba/F3 EGFR del19/T790M/C797S cells gives GI50 = 0.0094 µM
